Values compiled from patent US20150152192A1.

Biological target: T1, human Ang2 polypeptide (R&D systems; Accession #O15123; SEQ ID NO: 172) (human, UniProt O15123 19-496)
T1 construct: Bought protein; also called hAng2; human Ang2 protein
T1 sequence: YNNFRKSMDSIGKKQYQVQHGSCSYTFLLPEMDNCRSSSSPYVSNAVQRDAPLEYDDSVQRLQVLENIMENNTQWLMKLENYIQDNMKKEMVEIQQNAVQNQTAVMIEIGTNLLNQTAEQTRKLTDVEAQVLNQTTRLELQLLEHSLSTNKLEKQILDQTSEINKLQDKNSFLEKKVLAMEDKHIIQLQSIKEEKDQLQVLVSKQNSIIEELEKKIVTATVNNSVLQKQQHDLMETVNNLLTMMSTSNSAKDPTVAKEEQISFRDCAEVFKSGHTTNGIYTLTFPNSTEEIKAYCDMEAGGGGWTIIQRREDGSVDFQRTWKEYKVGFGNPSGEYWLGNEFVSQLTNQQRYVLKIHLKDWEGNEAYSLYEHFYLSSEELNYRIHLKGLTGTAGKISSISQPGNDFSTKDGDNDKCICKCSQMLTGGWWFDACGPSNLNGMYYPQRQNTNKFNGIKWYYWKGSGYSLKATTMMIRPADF
Experiment: ELISA, antigen coated, scFv, anti-HA-HRP; 50% binding concentration (Kd)
pKd: −log10 of the molar value.

{"Binder": "SAIT-ANG-2-AB-4-F5 (scFv form) (scFv, V domains shown, scFv from a phage display library) VH: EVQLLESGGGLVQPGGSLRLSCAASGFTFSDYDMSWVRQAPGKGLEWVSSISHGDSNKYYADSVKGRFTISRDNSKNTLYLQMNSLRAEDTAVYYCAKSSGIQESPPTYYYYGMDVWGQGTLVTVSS VL: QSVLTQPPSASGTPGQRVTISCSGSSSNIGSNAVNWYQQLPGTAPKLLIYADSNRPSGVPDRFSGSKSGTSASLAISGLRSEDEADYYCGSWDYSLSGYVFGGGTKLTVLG", "pKd": 7.92}
{"Binder": "SAIT-ANG-2-AB-8-A5 (scFv form) (scFv, V domains shown, scFv from a phage display library) VH: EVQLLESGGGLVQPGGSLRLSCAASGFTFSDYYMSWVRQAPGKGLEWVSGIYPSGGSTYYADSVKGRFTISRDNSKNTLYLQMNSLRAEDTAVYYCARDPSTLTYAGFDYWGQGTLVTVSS VL: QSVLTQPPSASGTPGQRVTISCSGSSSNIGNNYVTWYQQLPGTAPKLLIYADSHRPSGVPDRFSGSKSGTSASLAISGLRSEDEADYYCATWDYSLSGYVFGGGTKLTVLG", "pKd": 8.28}
{"Binder": "SAIT-ANG-2-AB-2-E6 (scFv form) (scFv, V domains shown, scFv from a phage display library, partly purified from E. coli periplasm on Ni-NTA and detected with anti-HA) VH: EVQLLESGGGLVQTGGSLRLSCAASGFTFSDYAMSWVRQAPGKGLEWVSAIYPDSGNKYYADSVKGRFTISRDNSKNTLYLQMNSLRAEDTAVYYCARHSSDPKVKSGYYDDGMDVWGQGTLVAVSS VL: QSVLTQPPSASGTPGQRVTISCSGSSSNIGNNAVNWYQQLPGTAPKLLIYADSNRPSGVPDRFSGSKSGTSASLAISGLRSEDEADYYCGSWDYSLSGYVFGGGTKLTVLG", "pKd": 8.03}
